Assay: qHTS Assay to Identify Small Molecule Activators of BRCA1 Expression; note: nearly all actives have a fitted effect of over 80% in size
Conditions: MCF7-BRCA1-FFLuc reporter, luminescence, 48 h; series mostly up to 46.1 µM
Screen size: about 380,000 compounds; about 4,000 (1.1%) were called active. About 3% were inconclusive and are not listed. Calls come from the whole dose curve; as a rule, active = well fitted activation curve with a large enough effect; inconclusive = small, poorly fitted or top-dose-only effect; inactive = no such curve, though single readings can be large or run the other way. The entries come from a sample that favours actives as a whole.
Pick one: 1 (yes) for active, 0 (no) for inactive

Check out these entries, answers already filled in.
>>> discrete_label("O=C(NCCC1=CCCCC1)c1ccc(-n2cncn2)cc1")
"1 (yes)"
>>> discrete_label("OC(Cc1ccc2ccccc2n1)c1ccc(Cl)c(Cl)c1 (configuration not stated)")
"0 (no)"
>>> discrete_label("CCCc1ccc(OCc2ccc(C(=O)N/N=C/c3cccc([N+](=O)[O-])c3)o2)c(OC)c1")
"0 (no)"
>>> discrete_label("Cc1cc2ccccc2n1CCNC(=O)c1ccc(F)cc1")
"0 (no)"

Prompt line: Per the records of this test, what outcome belongs to `CCCCN(C)S(=O)(=O)c1ccc(C(=O)Nc2sc3c(c2C(N)=O)CC(C)(C)NC3(C)C)cc1` ?
Response line: 0 (no)

Prompt line: Per the records of this test, what outcome belongs to `CCc1cccc(NC(=O)CSc2nccn2C)c1` ?
Response line: 1 (yes)

Prompt line: Per the records of this test, what outcome belongs to `CCc1ccc2nc(Nc3ncc(C(C)=O)c(C)n3)nc(C)c2c1` ?
Response line: 0 (no)

Prompt line: Per the records of this test, what outcome belongs to Cc1nc2ccc(S(=O)(=O)NC(C(=O)NCc3ccccc3Cl)C(C)C)cc2s1 (configuration not stated) ?
Response line: 0 (no)

Prompt line: Per the records of this test, what outcome belongs to `CC(C)c1ccc(NC(=O)CN(C)S(=O)(=O)c2ccc3c(c2)c(=O)n(C)c(=O)n3C)cc1` ?
Response line: 0 (no)

Prompt line: Per the records of this test, what outcome belongs to `Cc1ccc(Cc2nc3ccccc3nc2SCC(=O)Nc2cccc(C(F)(F)F)c2)cc1` ?
Response line: 0 (no)

Prompt line: Per the records of this test, what outcome belongs to `CCCCC(CCCC)c1ccc(C=Nc2ccc(/C=C/c3ccnc4ccccc34)cc2)cc1` ?
Response line: 0 (no)

Prompt line: Per the records of this test, what outcome belongs to CC(C)(C)C1CCC(NC(=O)c2cnn3c2NC(=C2CC2)C=C3C(F)F)CC1 (configuration not stated) ?
Response line: 0 (no)

Prompt line: Per the records of this test, what outcome belongs to CCCCCCC1(C)NC(c2ccc3c(c2)OCO3)=CC(c2ccccc2O)N1 (configuration not stated) ?
Response line: 0 (no)

Prompt line: Per the records of this test, what outcome belongs to `CCOc1ccc(C(=O)CCN2CCOCC2)cc1` ?
Response line: 0 (no)

Prompt line: Per the records of this test, what outcome belongs to `O=[N+]([O-])c1cccc(/C=N/Nc2ncc(Br)cn2)c1` ?
Response line: 1 (yes)

Data credit: PubChem BioAssay AID624202
